// provenance: patent US20260356856A1

Target of assay: KRas G12C (Homo sapiens, UniProt P01116, G12C)
Construct: Biotinylated KRas (corresponding to amino acids 1-169, produced at Accelegan Inc.); biotin (biotinylated); purchased Accelegan Inc
Sequence (P01116 1-169 isoform P01116-2 G12C): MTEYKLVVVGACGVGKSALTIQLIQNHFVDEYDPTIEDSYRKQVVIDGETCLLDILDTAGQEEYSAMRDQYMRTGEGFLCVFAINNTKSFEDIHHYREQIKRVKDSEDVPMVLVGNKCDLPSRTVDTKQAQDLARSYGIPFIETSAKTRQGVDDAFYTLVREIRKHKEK
Assay summary: KRas binding assay, TR-FRET displacement of Cy5 labelled tracer
Condition: 60-minute incubation at room temperature, 1% DMSO, pH 7.5
Consider the following compounds and their measured IC50 readings.
Expressed in nM, but write only the number.

Compound: CCc1c(F)ccc2cc(O)cc(-c3ncc4c(N(CCCC(=O)n5ccc(C)n5)C5CC5)nc(OC[C@@]56CCCN5C[C@H](F)C6)nc4c3F)c12
Value units: nM
Quantitative result: 2
//
Compound: O=C(Oc1ccccc1)[C@@H]1[C@@H]2CC[C@H]1CN(c1nc(OCC34CCCN3CCC4)nc3c(F)c(-c4cccc5cccc(F)c45)ncc13)C2
Value units: nM
Quantitative result: 92800
//
Compound: CCc1c(F)ccc2cc(O)cc(-c3ncc4c(N(C)CCN(C)C(=O)n5nccn5)nc(OC[C@@]56CCCN5C[C@H](F)C6)nc4c3F)c12 (single isomer, unassigned)
Value units: nM
Quantitative result: 22
//
Compound: CCc1c(F)ccc2cc(O)cc(-c3ncc4c(N5CCCC(C(=O)N(C)C(C)=O)CC5)nc(OC[C@@]56CCCN5C[C@H](F)C6)nc4c3F)c12 (stereo partly drawn)
Value units: nM
Quantitative result: 882
//
Compound: CCc1cc(O)cc2cccc(-c3c(Cl)cc4c(N5CCCC(C(=O)n6ccc(C)n6)CC5)nc(OC[C@@]56CCCN5C[C@H](F)C6)nc4c3F)c12 (stereo partly drawn)
Value units: nM
Quantitative result: 170
//
Compound: N#Cc1c(N)sc2c(F)ccc(-c3c(Cl)cc4c(N5CCN(S(=O)(=O)n6cnnc6)CC5)nc(OC[C@@]56CCCN5C[C@H](F)C6)nc4c3F)c12
Value units: nM
Quantitative result: 40

Prompt line: Look up IC50 with KRas G12C (Homo sapiens, UniProt P01116, G12C) for this compound: CCc1c(F)ccc2cc(O)cc(N3CCc4c(nc(OC[C@@]56CCCN5C[C@H](F)C6)nc4NCCCC(=O)n4ccc(C)n4)C3)c12
Response line: 5

Prompt line: Hello, I am looking for reported IC50 with KRas G12C (Homo sapiens, UniProt P01116, G12C) for COCc1ccn(C(=O)C2CCCN(c3nc(OC[C@@]45CCCN4C[C@H](F)C5)nc4c(F)c(-c5ccc(F)c6sc(N)c(C#N)c56)c(Cl)cc34)CC2)n1 (stereo partly drawn) . Could you help?
Response line: 5

Prompt line: Reported IC50 for KRas G12C (Homo sapiens, UniProt P01116, G12C), given CCc1c(F)ccc2cc(O)cc(-c3ncc4c(N(C)CCCC(=O)N(C)C(C)=O)nc(OC[C@@]56CCCN5C[C@H](F)C6)nc4c3F)c12 ?
Response line: 43

Prompt line: Lab request: please report IC50 under test system KRas G12C (Homo sapiens, UniProt P01116, G12C) for O=C(Oc1cccnc1)C1CCN(c2nc(OCC34CCCN3CCC4)nc3c(F)c(-c4cccc5cccc(F)c45)ncc23)CC1
Response line: 128
